condition.set: human, serum
I'd appreciate it if you could supply Hepatotoxicity (acute) values for the items below.
Just the number, please.

input: # input compound: CC(=O)N[C@H]1[C@@H](O[C@H]2[C@H](O)[C@@H](O)[C@H](O[C@H]3[C@H](CS(=O)(=O)O)[C@@H](OS(=O)(=O)O)[C@@H](O[C@H]4[C@H](O)[C@@H](OS(=O)(=O)O)C(O)O[C@H]4C(=O)O)O[C@@H]3O)O[C@@H]2C(=O)O)O[C@H](COS(=O)(=O)O)[C@@H](O)[C@@H]1O (some centres not stated) [SODIUM HEPARIN] ; wanted: its Hepatotoxicity (acute)
output: 4

input: What do you have for CCCc1nn(C)c2c(=O)[nH]c(-c3cc(S(=O)(=O)N4CCN(C)CC4)ccc3OCC)nc12 ?
output: 2

input: What do you have for CCCCNC(=N)NC(=N)N [BUFORMIN] ?
output: 1

input: What do you have for CO/N=C1\CN(c2nc3c(cc2F)c(=O)c(C(=O)O)cn3C2CC2)CC1CN (configuration not stated) [GEMIFLOXACIN] ?
output: 0

input: What do you have for CCOC(=O)[C@H](CCc1ccccc1)N[C@H]1CCc2ccccc2N(CC(=O)O)C1=O [BENAZEPRIL] ?
output: 2

input: What do you have for CSCC[C@H](N)C(=O)O [METHIONINE] ?
output: 2

input: What do you have for CNC1CCCN(c2c(F)cc3c(=O)c(C(=O)O)cn(C4CC4)c3c2OC)C1 (configuration not stated) [BALOFLOXACIN] ?
output: 0

* * *

experiment: Times to onset, minimal and maximal, observed in the indexed observations. [column 'DELAI' in source]
condition.set: human
outcome.measure: Hepatotoxicity (time to onset)

input: # input molecule: OCCN1CCN(CCCN2c3ccccc3C=Cc3ccccc32)CC1 ; wanted: its Hepatotoxicity (time to onset)
output: 11 days - 11 weeks

input: What do you have for O=C1C(CC[S+]([O-])c2ccccc2)C(=O)N(c2ccccc2)N1c1ccccc1 (stereo not drawn) ?
output: 10 days

input: What do you have for Cc1ccc(C(=O)c2ccc(CC(=O)O)n2C)cc1 ?
output: 3 weeks

input: What do you have for Cc1ccc(C(=O)c2cc(O)c(O)c([N+](=O)[O-])c2)cc1 ?
output: 1 month - 6 months

input: What do you have for Cc1nnc(SCC2=C(C(=O)O)N3C(=O)[C@@H](NC(=O)Cn4cnnn4)[C@H]3SC2)s1 ?
output: 1 week - 25 days

input: What do you have for CCCCc1oc2ccccc2c1C(=O)c1cc(I)c(OCCN(CC)CC)c(I)c1 ?
output: 1 day - 10 years

input: What do you have for CCc1nc(N)nc(N)c1-c1ccc(Cl)cc1 ?
output: 4 hours - 4 months

input: What do you have for FC(F)OC(F)C(F)(F)F (stereo not drawn) ?
output: 1 day - 12 days

input: What do you have for Cn1cnc([N+](=O)[O-])c1Sc1ncnc2nc[nH]c12 ?
output: 2 hours - 8 years

input: What do you have for CC/C(=C(/CC)c1ccc(OP(=O)(O)O)cc1)c1ccc(OP(=O)(O)O)cc1 [DIETHYLSTILBESTROL DIPHOSPHATE] ?
output: 3 months - 9 years

input: What do you have for C[C@@H]1C[C@H]2[C@@H]3CCC4=CC(=O)C=C[C@]4(C)C3=CC[C@]2(C)[C@H]1C(=O)CN1CCN(c2cc(N3CCCC3)nc(N3CCCC3)n2)CC1 ?
output: 3 days - 10 days

input: What do you have for CCN(CC)CCNc1ccc(CO)c2sc3ccccc3c(=O)c12 ?
output: 1 day - 18 days

input: What do you have for CC(C)=CCN1CC[C@]2(C)c3cc(O)ccc3C[C@H]1[C@H]2C [(+)-PENTAZOCINE] ?
output: < 3 months

input: What do you have for CC1COc2c(N3CCN(C)CC3)c(F)cc3c(=O)c(C(=O)O)cn1c23 (stereo not drawn) ?
output: 4 days - 26 weeks

input: What do you have for Cc1ccc(S(=O)(=O)NC(=O)NN2CC3CCCC3C2)cc1 (stereo not drawn) [GLICLAZIDE] ?
output: 4 weeks - 5 weeks

input: What do you have for CN(C)[C@@H]1C(O)=C(C(N)=O)C(=O)[C@@]2(O)C(O)=C3C(=O)c4c(O)ccc(Cl)c4[C@@H](O)[C@H]3C[C@@H]12 ?
output: 2 days - 2 months

input: What do you have for CCC1=C[C@@H]2CN(C1)Cc1c([nH]c3ccccc13)[C@@](C(=O)OC)(c1cc3c(cc1OC)N(C)[C@H]1[C@@](O)(C(=O)OC)[C@H](OC(C)=O)[C@]4(CC)C=CCN5CC[C@]31[C@@H]54)C2 ?
output: 2 days - 10 days

input: What do you have for CC(CCc1ccccc1)NCC(O)c1ccc(O)c(C(N)=O)c1 (stereo not drawn) ?
output: 3 weeks - 6 months

input: What do you have for C[C@H]1O[C@H](O[C@H]2[C@H](O)[C@@H](O)[C@@H](O[C@H]3[C@H](O)[C@@H](O)C(O)O[C@@H]3CO)O[C@@H]2CO)[C@H](O)[C@@H](O)[C@@H]1N[C@H]1C=C(CO)[C@@H](O)[C@H](O)[C@H]1O (stereo partly drawn) ?
output: 1 week - 1.5 years

input: What do you have for CC(=O)N1CCN(c2ccc(OCC3COC(Cn4ccnc4)(c4ccc(Cl)cc4Cl)O3)cc2)CC1 (stereo not drawn) ?
output: 3 days - 5 years

input: What do you have for Clc1ccc2c(c1)C(N1CCNCC1)=Nc1ccccc1O2 ?
output: 4 days - 18 days

input: What do you have for CCN(CC)CCn1c(-c2ccccc2)noc1=N ?
output: 2 months

input: What do you have for CCC(=O)O[C@@H](O[P@](=O)(CCCCc1ccccc1)CC(=O)N1C[C@H](C2CCCCC2)C[C@H]1C(=O)O)C(C)C ?
output: 3 weeks - 3 months

input: What do you have for Cc1nccn1CC1CCc2c(c3ccccc3n2C)C1=O (stereo not drawn) ?
output: 8 days - 9 days

input: What do you have for Cc1c(C)c2c(c(C)c1O)CCC(C)(COc1ccc(CC3SC(=O)NC3=O)cc1)O2 (stereo not drawn) ?
output: 3 days - 2.3 years

input: What do you have for CC(=O)CCC1C(=O)N(c2ccccc2)N(c2ccccc2)C1=O ?
output: 1 week - 1 month

input: What do you have for CNCCON=c1c2ccccc2ccc2ccccc12 ?
output: 6 weeks

input: What do you have for COc1ccc(CN2CCNCC2)c(OC)c1OC ?
output: 2 weeks

input: What do you have for CN1CCN(CCCN2c3ccccc3Sc3ccc(Cl)cc32)CC1 ?
output: 1 week - 4 months

input: What do you have for CCC1NC(=O)c2cc(S(N)(=O)=O)c(Cl)cc2N1 (stereo not drawn) ?
output: 2 months

input: What do you have for CN(Cc1cnc2nc(N)nc(N)c2n1)c1ccc(C(=O)N[C@@H](CCC(=O)O)C(=O)O)cc1 [METHOTREXATE] ?
output: 4 hours - 16 years

input: What do you have for NS(=O)(=O)c1cc2c(cc1Cl)N=CNS2(=O)=O [CHLOROTHIAZIDE] ?
output: 2 weeks - 2 years

input: What do you have for C[C@@H]1O[C@@H]1P(=O)(O)O ?
output: 3 days - 4 days

* * *

condition.set: human
outcome.measure: Hepatotoxicity (steatosis)
Just the number, please.

input: # input molecule: CN(C)[C@@H]1C(O)=C(C(N)=O)C(=O)[C@@]2(O)C(O)=C3C(=O)c4c(O)ccc(Cl)c4[C@@](C)(O)[C@H]3C[C@@H]12 ; wanted: its Hepatotoxicity (steatosis)
output: 3

input: What do you have for CC(C)(Oc1ccc(CCNC(=O)c2ccc(Cl)cc2)cc1)C(=O)O [BEZAFIBRATE] ?
output: 0

input: What do you have for NC(=O)c1cc[n+](CC2=C(C(=O)O)N3C(=O)[C@@H](NC(=O)[C@@H](c4ccccc4)S(=O)(=O)[O-])[C@H]3SC2)cc1 ?
output: 0

* * *

I'd appreciate it if you could supply Hepatotoxicity (steatosis) values for the items below.
condition.set: human
Where a SMILES comes first, the peptide text is derived from it. Bridges are numbered along the chain shown (N, C = ends). [ ]: non-standard residue; d: D form. The star is where a group is joined. NMePhe(4-NMe2) = CN[C@@H](Cc1ccc(N(C)C)cc1)C(=O)O; Pip(4-oxo) = O=C1CCN[C@H](C(=O)O)C1; Picolinoyl(3-OH) = O=C(c1ncccc1O)*; Phg = N[C@H](C(=O)O)c1ccccc1; dAbu = CC[C@@H](N)C(=O)O
Just the number, please.

input: # input compound: CC[C@H]1NC(=O)[C@@H](NC(=O)c2ncccc2O)[C@@H](C)OC(=O)[C@H](c2ccccc2)NC(=O)[C@@H]2CC(=O)CCN2C(=O)[C@H](Cc2ccc(N(C)C)cc2)N(C)C(=O)[C@@H]2CCCN2C1=O [PRISTINAMYCIN 1A] ({Picolinoyl(3-OH)}-T[dAbu]P[NMePhe(4-NMe2)][Pip(4-oxo)][Phg]; ester 1-C) ; wanted: its Hepatotoxicity (steatosis)
output: 0

input: What do you have for Cn1c(=O)c2[nH]cnc2n(C)c1=O.O ?
output: 0

input: What do you have for NS(=O)(=O)c1cc2c(cc1C(F)(F)F)NC(Cc1ccccc1)NS2(=O)=O (configuration not stated) [BENDROFLUMETHIAZIDE] ?
output: 0

input: What do you have for O=C(O)C1N=C(c2ccccc2)c2cc(Cl)ccc2NC1=O (configuration not stated) [CLORAZEPIC ACID] ?
output: 0

input: What do you have for CN(C)CCCC1(c2ccc(F)cc2)OCc2cc(C#N)ccc21 (configuration not stated) ?
output: 0

input: What do you have for OCc1cc(C(O)CNCCCCCCOCCCCc2ccccc2)ccc1O (configuration not stated) ?
output: 0

input: What do you have for CC/C(=C(/c1ccc(OCCN(C)C)cc1)c1cccc(O)c1)c1ccccc1 ?
output: 0
